assay_details: soluble on expression in E. coli; label from the status in PepcDB or PDB records
measured_property: soluble on expression in E. coli

Example sequences with recorded soluble on expression in E. coli:
>>> value_observed("FSDILEDRIERLNACFAKAIARYNYPGVYRGVFPVKCNQERHLIEDLVKFGKPHQFGLEAGSKPELMIALAVLDTPGALLVCNGYKDREYIETAMLAQRLGQTPIIVLEQIEEVDLVIDANRQLGIKPILGVRAKLSTQGMGRWGASSGDRAKFGLTMPEVIEAVDKLREANLLDSLQLMHFHIGSQISAINVIKDAIQEASRIYVELAMLGADMKYLDVGGGLGVDYDGSQTNFYASKNYNMQNYANDIVAELKDTCAERQITVPTLISESGRAIAS")
"not soluble"
>>> value_observed("MSLTRRATSLLPPNATALERRLADTNARISDIPVDIGALMDPDAIPLRFLPWLAWHLGVETWKDYWPEQVKRARVKAAIRIARKKGTAAAVREVCASFGANVAMREWFEKTPKGRPGTFEILMTVGARDGIPATAEYVADIIAEVDRAKRGTAHYTFTQGFGATGTQRIGAGARVAVYRRLSLTDIEGHHHHHH")
"not soluble"
>>> value_observed("MGHHHHHHSHMPPAAAGPLAGQPRKSSSSRRNAWGNLSYADLITKAIESSAEKRLTLSQIYEWMVKSVPYFKDKGDSNSSAGWKNSIRHNLSLHSKFIRVQNEGTGKSSWWMLNPEGGKSGKSPRRRAASMDNNSKFAKSRSRAAKKKA")
"soluble"
>>> value_observed("MNDRADFVVPDITTRKNVGLSHDANDFTLPQPLDRYSAEDHATWATLYQRQCKLLPGRACDEFLEGLERLEVDADRVPDFNKLNEKLMAATGWKIVAVPGLIPDDVFFEHLANRRFPVTWWLREPHQLDYLQEPDVFHDLFGHVPLLINPVFADYLEAYGKGGVKAKALGALPMLARLYWYTVEFGLINTPAGMRIYGAGILSSKSESIYCLDSASPNRVGFDLMRIMNTRYRIDTFQKTYFVIDSFKQLFDATAPDFAPLYLQLADAQPWGAGDIAPDDLVLNAGDHQGWADTEDV")
"soluble"
>>> value_observed("MSLTRGEARRPPQEFDRVLSSMCTTPHPAAREAAQAFLATNPGDPETYPAVAERERDAVALLGEIVGLSSPHGYIAAGGTEANLQAVRAARNRADADAVNVVAPASAHFSFQKAADVLGVELRLAPTDGDHRADVAAVADLVDGDTAVVVGVAGTTEYGRVDPIPALADIAAGVDANLHVDAAWGGFVLPFTDHDWSFADAPVNTMAIDPHKMGQAPVPAGGFLARDPETLDALAIETPYLESDTQPTLGGTRSGAGVAGALASLRALWPDGYREQYERTQGNAEYLAAELAARGYDVVDPELPLVAADMPDAEFQALREEGWRISRTASDALRVVCMPHVTREMLAAFLDDVDALAEGHHHHHH")
"not soluble"

Shift focus to the following entry.
Query block: Value lookup for soluble on expression in E. coli; key = MSLSRRGRPKIPRFISEEPKFRIFKPHGVSLTEVDKVILSVDELEAIRLVDYLDYTQEEASKLMGISRRVLWSLLTEGRKKIADALINGKAIVIEGGEYKIRECGFCMRHRFGIKKHCRTWREELEGHHHHHH
Result block: not soluble
